# Tested on: PRKCQ
# Settings: concentration: 1 μM, replicates: in singlicate; n = 1;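 also: KINOMEscan kinase panel screen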
Experimental readout: %Inh (%)
Report the value in % with no unit label.

Fill in reported %Inh for this entry: O=C(O)C(F)(F)F.O=C(O)C(F)(F)F.O=c1[nH]ccc2nc(N[C@@H]3CCCNC3)nc(Nc3ccc(S(=O)(=O)N4CCOCC4)cc3)c12
99.2

Fill in reported %Inh for this entry: Cl.Cl.NCC(NCc1ccc(-c2ccnc3[nH]ccc23)s1)c1ccccc1 (centres unmarked)
55

Fill in reported %Inh for this entry: O=C(Nc1ccccc1F)NC1CCN(c2ccnc(Nc3ccc(F)cc3)n2)CC1
0

Fill in reported %Inh for this entry: Cl.Cl.NCC(NC(=O)c1cc(-c2ccccc2)c(-c2ccnc3[nH]ccc23)s1)c1ccccc1 (centres unmarked)
49

Fill in reported %Inh for this entry: Oc1cc(Nc2ccnc3cc(I)ccc23)ccc1F
0

---

# Test system: PAK2
# Settings: concentration: 1 μM, replicates: in singlicate; n = 1
Where %Inh equals or exceeds 6%, the correct label is Criterion met; where it does not, the label is Criterion not met.

Is reported %Inh greater than or equal to 6% here: O=C(Nc1n[nH]c2cc(-c3ccoc3)ccc12)C1CC1
Criterion met

Is reported %Inh greater than or equal to 6% here: COc1cccc(C(=O)Nc2cccc(Oc3ccc4nc(NC(=O)C5CC5)cn4n3)c2)c1
Criterion met

Is reported %Inh greater than or equal to 6% here: COc1ccc(CNC(=O)NC2CCN(c3ccnc(Nc4ccc(F)cc4)n3)CC2)cc1
Criterion not met

Is reported %Inh greater than or equal to 6% here: COc1cc(Nc2nccc(-c3c(-c4cccc(NC(=O)c5c(F)cccc5F)c4)nn4ccccc34)n2)cc(OC)c1OC
Criterion not met

Is reported %Inh greater than or equal to 6% here: CCCCc1nn2ncccc2c1-c1ccnc(Nc2ccc(N3CCN(C)CC3)cc2)n1
Criterion not met

Is reported %Inh greater than or equal to 6% here: c1ccc(-c2cnc3nccnn23)cc1
Criterion met

Is reported %Inh greater than or equal to 6% here: CC(=O)Nc1nc2cnc(Nc3cc(NC(=O)c4cccc(C5(C#N)CC5)c4Cl)ccc3C)nc2s1
Criterion not met

Is reported %Inh greater than or equal to 6% here: Nc1ncnc2c1nc(-c1ccccc1)n2-c1ccccc1
Criterion met

Is reported %Inh greater than or equal to 6% here: C[C@@H](Oc1cc(-n2cnc3cc(-c4ccnc(NCCS(C)(=O)=O)c4)ccc32)sc1C(N)=O)c1ccccc1Cl
Criterion met

Is reported %Inh greater than or equal to 6% here: Oc1cc(Nc2ccnc3cc(I)ccc23)ccc1F
Criterion not met

Is reported %Inh greater than or equal to 6% here: COc1cccc(NC(=O)NC2CCN(c3ccnc(Nc4cc(OC)c(OC)c(OC)c4)n3)C2)c1 (centres unmarked)
Criterion not met

Is reported %Inh greater than or equal to 6% here: COc1cc2c(cc1OCCN1CCNCC1)ncc1c3ccc(C#N)cc3[nH]c21
Criterion not met

Is reported %Inh greater than or equal to 6% here: Cl.Cl.NCC(NCc1ccc(-c2ccnc3[nH]ccc23)s1)c1ccccc1 (centres unmarked)
Criterion not met

Is reported %Inh greater than or equal to 6% here: CCn1c(-c2nonc2N)nc2c(C#CC(C)(C)O)ncc(OCCCCN)c21.O=C(O)C(F)(F)F.O=C(O)C(F)(F)F
Criterion met

Is reported %Inh greater than or equal to 6% here: Nc1ncc(-c2ccc3nccc(-c4ccncc4)c3c2)cc1S(=O)(=O)N1CCOCC1
Criterion met

Is reported %Inh greater than or equal to 6% here: COCCOCCOc1cc2ncc3c4ccc(C#N)cc4[nH]c3c2cc1OC
Criterion met

Is reported %Inh greater than or equal to 6% here: Clc1ccc(-c2nn3ncccc3c2-c2ccnc(Nc3ccc4c(c3)OCCO4)n2)cc1
Criterion met

Is reported %Inh greater than or equal to 6% here: c1ccc(-c2n[nH]cc2Nc2ccnc3ccccc23)nc1
Criterion met

Is reported %Inh greater than or equal to 6% here: NCCCC(NC(=O)c1cc(Br)c(-c2ccnc3[nH]ccc23)s1)c1ccccc1.O=C(O)C(F)(F)F.O=C(O)C(F)(F)F (centres unmarked)
Criterion met

---

For each of the compounds below, state its %Inh.
# System: GRK4
# Settings: concentration: 1 μM, replicates: in singlicate; n = 1

Fill in reported %Inh for this entry: O=C(Nc1ccccc1F)NC1CCN(c2ccnc(Nc3ccc(F)cc3)n2)CC1
0%

Fill in reported %Inh for this entry: CNC(=O)c1ccccc1Nc1nc(Nc2ccc(N3CCOCC3)cc2)ncc1Cl.Cl
84%

Fill in reported %Inh for this entry: CN1CCN(CCCNc2nccc(-c3c(-c4ccc(F)cc4)nn4cc(C(F)(F)F)ccc34)n2)CC1
8%

Fill in reported %Inh for this entry: COc1cc(Nc2ncc3c(C)nc(-c4cc5ccccc5[nH]4)n3n2)cc(OC)c1OC
19%

Fill in reported %Inh for this entry: C[C@@H]1CC[C@@H](C(=O)Nc2ccccc2)CN1c1cc(-c2ccc3c(N)n[nH]c3c2)nc(N)n1
0%

---

For each of the compounds below, state its %Inh.
# Test system: CSNK1D
# Settings: concentration: 1 μM, replicates: in singlicate; n = 1
Report the value in % with no unit label.

Fill in reported %Inh for this entry: CC(=O)N1CCN(c2ccc(Nc3nccc(-c4sc(C(C)C)nc4-c4cccc(NS(=O)(=O)c5cccc(Cl)c5)c4)n3)cn2)CC1
0

Fill in reported %Inh for this entry: CSc1cccc2c(-c3ccncn3)c(-c3ccc(F)cc3)nn12
84

Fill in reported %Inh for this entry: Cl.c1ccc(-c2ccc3c(Nc4ccc5[nH]ccc5c4)ccnc3c2)nc1
13

Fill in reported %Inh for this entry: COCCOCCOc1cc2ncc3c4ccc(C#N)cc4[nH]c3c2cc1OC
0

Fill in reported %Inh for this entry: CCn1c(-c2nonc2N)nc2c(C#CC(C)(C)O)nc(OC[C@H](N)c3ccccc3)cc21
0

Fill in reported %Inh for this entry: NCCCC(NC(=O)c1cc(Br)c(-c2ccnc3[nH]ccc23)s1)c1ccccc1.O=C(O)C(F)(F)F.O=C(O)C(F)(F)F (stereo not shown)
82

Fill in reported %Inh for this entry: Cc1occc1-c1ncc(OC[C@@H](N)Cc2c[nH]c3ccccc23)cc1-c1ccc2[nH]nc(C)c2c1.O=C(O)C(F)(F)F
97.8

---

# Test system: ULK1
# Settings: concentration: 1 μM, replicates: in singlicate; n = 1
Where %Inh equals or exceeds 4%, the correct label is Y; where it does not, the label is N.

Is reported %Inh greater than or equal to 4% here: Cl.NC(=O)c1cccc(Nc2nccc(Nc3ccc(Oc4c(Cl)cccc4Cl)c(Cl)c3)n2)c1 [GW659009]
Y

Is reported %Inh greater than or equal to 4% here: Cc1ccc(F)c(C(=O)Nc2cccc(-c3nn4ccccc4c3-c3ccnc(Nc4cccc(F)c4)n3)c2)c1F [GSK361061]
Y

Is reported %Inh greater than or equal to 4% here: c1ccc(-c2cnc3nccnn23)cc1 [AH20685]
Y

Is reported %Inh greater than or equal to 4% here: Cc1cccc(Nc2nc(N[C@H]3CCNC3)ncc2C(N)=O)c1.Cl [GSK2197149]
Y

Is reported %Inh greater than or equal to 4% here: Nc1n[nH]c2cnc(-c3ccccc3)cc12 [SB-642124]
Y

Is reported %Inh greater than or equal to 4% here: CN(C)S(=O)(=O)c1cc(-c2ccc3nccc(-c4cccc(S(N)(=O)=O)c4)c3c2)cnc1N [GSK1669921]
Y

Is reported %Inh greater than or equal to 4% here: COc1ccc(-c2coc3ccc(-c4nnc(SCc5ccc(OC)c(C(F)(F)F)c5)o4)cc23)cc1
N

Is reported %Inh greater than or equal to 4% here: COC(=O)Nc1nc2cc(Oc3ccc(NC(=O)Nc4cc(C(F)(F)F)ccc4F)cn3)ccc2[nH]1.Cl.Cl [GW681170]
N

Is reported %Inh greater than or equal to 4% here: O=C(Nc1n[nH]c2nc(-c3ccc(O)cc3)ccc12)C1CC1 [SB-710363]
N

Is reported %Inh greater than or equal to 4% here: CN1CCN(CCCNc2nccc(-c3c(-c4ccc(F)cc4)nn4cc(C(F)(F)F)ccc34)n2)CC1 [GW621581]
Y

Is reported %Inh greater than or equal to 4% here: CCn1c(-c2nonc2N)nc2c(C#CC(C)(C)O)ncc(OCCCCN)c21.O=C(O)C(F)(F)F.O=C(O)C(F)(F)F [GSK507274]
Y

Is reported %Inh greater than or equal to 4% here: COc1cccc(NC(=O)NC2CCN(c3ccnc(Nc4cc(OC)c(OC)c(OC)c4)n3)C2)c1 (stereo not drawn) [GSK1379763]
N

Is reported %Inh greater than or equal to 4% here: O=C(NC1CCN(c2ccnc(Nc3ccc(F)cc3)n2)C1)c1cc2ccccc2s1 (stereo not drawn) [GSK1379716]
N

Is reported %Inh greater than or equal to 4% here: CN1CCN(Cc2cccc(-c3ccc4c(Nc5ccc(Oc6ccccc6)cc5)ccnc4c3)c2)CC1 [GW578342]
N
